Provenance of the data: patent US4925852A

Recorded measurements of IC50, one per entry
# target_of_assay: HMG-CoA reductase (Rattus norvegicus)
# Construct: solubilized enzyme preparations from rat liver microsomes
# Sequence (P51639 whole entry): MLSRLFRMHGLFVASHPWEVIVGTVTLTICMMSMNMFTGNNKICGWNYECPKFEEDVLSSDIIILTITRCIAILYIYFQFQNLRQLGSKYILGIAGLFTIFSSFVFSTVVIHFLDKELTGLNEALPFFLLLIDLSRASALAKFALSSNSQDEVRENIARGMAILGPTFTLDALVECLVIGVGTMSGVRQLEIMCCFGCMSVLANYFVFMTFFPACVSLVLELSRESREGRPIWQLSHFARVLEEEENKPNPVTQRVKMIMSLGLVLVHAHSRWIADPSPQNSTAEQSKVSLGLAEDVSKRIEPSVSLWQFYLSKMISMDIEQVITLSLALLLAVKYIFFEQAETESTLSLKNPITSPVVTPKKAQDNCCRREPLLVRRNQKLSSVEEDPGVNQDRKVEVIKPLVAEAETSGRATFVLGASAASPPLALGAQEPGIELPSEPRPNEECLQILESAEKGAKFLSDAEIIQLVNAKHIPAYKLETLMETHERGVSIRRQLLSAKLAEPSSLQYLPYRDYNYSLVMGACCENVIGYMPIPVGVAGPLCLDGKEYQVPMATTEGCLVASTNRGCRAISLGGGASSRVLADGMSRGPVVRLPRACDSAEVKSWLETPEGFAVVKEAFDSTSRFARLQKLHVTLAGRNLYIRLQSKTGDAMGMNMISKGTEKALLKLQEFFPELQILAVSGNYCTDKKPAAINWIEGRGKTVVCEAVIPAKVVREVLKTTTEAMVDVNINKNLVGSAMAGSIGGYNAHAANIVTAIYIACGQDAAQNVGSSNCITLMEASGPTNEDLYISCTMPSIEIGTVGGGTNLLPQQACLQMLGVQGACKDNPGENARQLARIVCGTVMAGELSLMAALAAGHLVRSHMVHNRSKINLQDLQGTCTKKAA
# assay_explanation: HMG-CoA reductase activity in solubilized enzyme preparations from rat liver microsomes (14C-HMG-CoA)
# settings: Table 1; solubilized rat liver microsomal enzyme; mean of 3 parallel samples; read-out: IC50 (molar concentration of the compound required for 50% inhibition of HMG-CoA reductase)
Give just the number in nM; leave the unit off.

Field: example entries. Status: answers known.
// query # return recorded IC50 for input CC(C)c1nc(-c2ccccc2)nc(-c2ccc(F)cc2)c1/C=C/[C@@H](O)C[C@@H](O)CC(=O)O [Example 13o]
// result 3

// query Supply reported IC50 belonging to this molecule: CC(C)c1nc(-c2ccc(F)cc2)cc(-c2ccc(F)cc2)c1/C=C/[C@@H](O)C[C@@H](O)CC(=O)O [Example 13j]
// result 2.3

// query Give the measured IC50 for CC(C)c1nc(C(C)(C)C)cc(-c2ccc(F)cc2)c1/C=C/[C@@H](O)C[C@@H](O)CC(=O)O [Example 13r]
// result 1.2

New cases:
// query Look up and state reported IC50 for Cc1cc(-c2ccc(F)cc2)c(/C=C/[C@@H](O)C[C@@H](O)CC(=O)O)c(C(C)C)n1 [Example 13d]
// result 9.1

----------
# target_of_assay: HMG-CoA reductase (Rattus norvegicus)
# Construct: solubilized enzyme preparations from rat liver microsomes
# assay_explanation: HMG-CoA reductase activity in solubilized enzyme preparations from rat liver microsomes (14C-HMG-CoA)
# settings: Table 1; solubilized rat liver microsomal enzyme; mean of 3 parallel samples; read-out: IC50 (molar concentration of the compound required for 50% inhibition of HMG-CoA reductase)
Item-by-item account of pIC50
On this scale, pIC50 is minus log10 of a concentration expressed in M (mol/L).

Here's what some known entries look like.
// query Entry Cc1ccc(C)c(-c2cc(-c3ccc(F)cc3)c(/C=C/[C@@H](O)C[C@@H](O)CC(=O)O)c(C(C)C)n2)c1 [Example 13i] needs its pIC50 filled in; supply it.
// result 8.30

// query # return recorded pIC50 for entry Cc1cc(-c2ccc(Cl)cc2)c(/C=C/[C@@H](O)C[C@@H](O)CC(=O)O)c(C)n1 [Example 13b]
// result 7.03

// query Return value of pIC50 for input CC(C)c1cc(-c2ccccc2)nc(-c2ccc(F)cc2)c1/C=C/[C@@H](O)C[C@@H](O)CC(=O)O [Example 13f] , no commentary.
// result 8.40

New cases:
// query Give a short answer stating reported pIC50 for Cc1nc(C)c(/C=C/[C@@H](O)C[C@@H](O)CC(=O)O)c(-c2ccc(Cl)cc2)n1 [Example 13l] .
// result 6.22

// query Annotate the molecule CC(C)c1cc(-c2ccc(F)cc2)c(/C=C/[C@@H](O)C[C@@H](O)CC(=O)O)c(C(C)C)n1 [Example 13q] with its measured pIC50.
// result 8.60

// query Please list pIC50 recorded for the molecule CC(C)c1nc(-c2ccccc2)cc(-c2ccc(F)cc2)c1/C=C/[C@@H](O)C[C@@H](O)CC(=O)O [Example 13e]
// result 8.54
